biological target: Bla2 (Bacillus anthracis, UniProt Q93T40); assay: biochemical; format: biochemical; conditions: read-out: Bla2 IC50
Sequence (Q93T40 1-256): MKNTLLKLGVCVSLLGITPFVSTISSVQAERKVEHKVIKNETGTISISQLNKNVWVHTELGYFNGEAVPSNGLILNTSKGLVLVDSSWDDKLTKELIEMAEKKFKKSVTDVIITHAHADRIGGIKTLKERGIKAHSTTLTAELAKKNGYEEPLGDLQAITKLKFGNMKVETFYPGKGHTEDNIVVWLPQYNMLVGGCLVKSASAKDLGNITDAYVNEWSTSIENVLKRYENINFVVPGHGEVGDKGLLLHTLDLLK

>  <compound>
O=C(O)C1CS[C@H](c2ccccc2O)N1 (stereo partly shown)

>  <unit-spec>
µM

>  <IC50>
16

$$$$
>  <compound>
CC(C)(C)OC(=O)Nc1cccc(C2=NC(C(=O)O)CS2)c1 (stereo not shown)

>  <unit-spec>
µM

>  <IC50>
70

$$$$
>  <compound>
Nc1cccc(C2=NC(C(=O)O)CS2)c1 (stereo not shown)

>  <unit-spec>
µM

>  <IC50>
20

$$$$
>  <compound>
COC(=O)[C@@H]1CSC(CNC(=O)OC(C)(C)C)=N1

>  <unit-spec>
µM

>  <IC50>
110

$$$$
